- Target Or System: Glutamate receptor 1 (Rattus norvegicus)
- Protocol Description: Antagonist activity at rat recombinant GluR1 expressed in Xenopus laevis oocytes assessed as inhibition of glutamate-induced current at 3 uM by two electrode voltage clamp method relative to control
- Format: functional, cell-based
- Experimental Conditions: Oocyte
Quantity Name: % response (%)
Field: numeric (%). Do not append units.

Task: Need % response, item CS(=O)(=O)Nc1ccc(OCC(=O)NCCCc2ccc(Cl)c(Cl)c2)cc1
Result: 100

Task: Would you kindly repeat that for CS(=O)(=O)Nc1ccc(OCC(=O)NCCNc2ccc(Cl)c(Cl)c2)cc1 ?
Result: 101

Task: Would you kindly repeat that for CS(=O)(=O)Nc1ccc(OCC(=O)N2CCN(c3ccc(Cl)c(Cl)c3)CC2)cc1 ?
Result: 101

Task: Would you kindly repeat that for CS(=O)(=O)Nc1ccc(OCCN2CCN(c3ccc(Cl)c(Cl)c3)C2=O)cc1 ?
Result: 98

Task: Would you kindly repeat that for CS(=O)(=O)Nc1ccc(CCC(=O)NC/C=C/c2ccc(Cl)c(Cl)c2)cc1 ?
Result: 104

Task: Would you kindly repeat that for CS(=O)(=O)Nc1ccc(OCC(=O)NCCOc2ccc(Cl)c(Cl)c2)cc1 ?
Result: 100

Task: Would you kindly repeat that for CS(=O)(=O)Nc1ccc(OCCNCCNc2ccc(Cl)c(Cl)c2)cc1 ?
Result: 101

Task: Would you kindly repeat that for CS(=O)(=O)Nc1ccc(CCCNCCNc2ccc(Cl)c(Cl)c2)cc1 ?
Result: 102

---

- Target Or System: Glutamate NMDA receptor; Grin1/Grin2a (Rattus norvegicus) (UniProt P35439+Q00959)
- Protocol Description: Antagonist activity at rat recombinant NR1/NR2A receptor expressed in Xenopus laevis oocytes assessed as inhibition of glutamate/glycine-induced current at 3 uM by two electrode voltage clamp method relative to control
- Type: functional, cell-based
- Experimental Conditions: Oocyte
Quantity Name: % response (%)
Field: numeric (%). Do not append units.

Task: Need % response, item CS(=O)(=O)Nc1ccc(CCCNCCNc2ccc(Cl)c(Cl)c2)cc1
Result: 89

Task: Would you kindly repeat that for CS(=O)(=O)Nc1ccc(CCCC(=O)NCCc2ccc(Cl)c(Cl)c2)cc1 ?
Result: 99

Task: Would you kindly repeat that for CS(=O)(=O)Nc1ccc(CCC(=O)NNC(=O)Nc2ccc(Cl)c(Cl)c2)cc1 ?
Result: 101

Task: Would you kindly repeat that for CS(=O)(=O)Nc1ccc(CCC(=O)NCCCNc2ccc(Cl)c(Cl)c2)cc1 ?
Result: 96

---

- Target Or System: Glutamate NMDA receptor; GRIN1/GRIN2B (Homo sapiens, UniProt Q05586+Q13224)
- Sequence (Q13224 whole entry, other chains not shown): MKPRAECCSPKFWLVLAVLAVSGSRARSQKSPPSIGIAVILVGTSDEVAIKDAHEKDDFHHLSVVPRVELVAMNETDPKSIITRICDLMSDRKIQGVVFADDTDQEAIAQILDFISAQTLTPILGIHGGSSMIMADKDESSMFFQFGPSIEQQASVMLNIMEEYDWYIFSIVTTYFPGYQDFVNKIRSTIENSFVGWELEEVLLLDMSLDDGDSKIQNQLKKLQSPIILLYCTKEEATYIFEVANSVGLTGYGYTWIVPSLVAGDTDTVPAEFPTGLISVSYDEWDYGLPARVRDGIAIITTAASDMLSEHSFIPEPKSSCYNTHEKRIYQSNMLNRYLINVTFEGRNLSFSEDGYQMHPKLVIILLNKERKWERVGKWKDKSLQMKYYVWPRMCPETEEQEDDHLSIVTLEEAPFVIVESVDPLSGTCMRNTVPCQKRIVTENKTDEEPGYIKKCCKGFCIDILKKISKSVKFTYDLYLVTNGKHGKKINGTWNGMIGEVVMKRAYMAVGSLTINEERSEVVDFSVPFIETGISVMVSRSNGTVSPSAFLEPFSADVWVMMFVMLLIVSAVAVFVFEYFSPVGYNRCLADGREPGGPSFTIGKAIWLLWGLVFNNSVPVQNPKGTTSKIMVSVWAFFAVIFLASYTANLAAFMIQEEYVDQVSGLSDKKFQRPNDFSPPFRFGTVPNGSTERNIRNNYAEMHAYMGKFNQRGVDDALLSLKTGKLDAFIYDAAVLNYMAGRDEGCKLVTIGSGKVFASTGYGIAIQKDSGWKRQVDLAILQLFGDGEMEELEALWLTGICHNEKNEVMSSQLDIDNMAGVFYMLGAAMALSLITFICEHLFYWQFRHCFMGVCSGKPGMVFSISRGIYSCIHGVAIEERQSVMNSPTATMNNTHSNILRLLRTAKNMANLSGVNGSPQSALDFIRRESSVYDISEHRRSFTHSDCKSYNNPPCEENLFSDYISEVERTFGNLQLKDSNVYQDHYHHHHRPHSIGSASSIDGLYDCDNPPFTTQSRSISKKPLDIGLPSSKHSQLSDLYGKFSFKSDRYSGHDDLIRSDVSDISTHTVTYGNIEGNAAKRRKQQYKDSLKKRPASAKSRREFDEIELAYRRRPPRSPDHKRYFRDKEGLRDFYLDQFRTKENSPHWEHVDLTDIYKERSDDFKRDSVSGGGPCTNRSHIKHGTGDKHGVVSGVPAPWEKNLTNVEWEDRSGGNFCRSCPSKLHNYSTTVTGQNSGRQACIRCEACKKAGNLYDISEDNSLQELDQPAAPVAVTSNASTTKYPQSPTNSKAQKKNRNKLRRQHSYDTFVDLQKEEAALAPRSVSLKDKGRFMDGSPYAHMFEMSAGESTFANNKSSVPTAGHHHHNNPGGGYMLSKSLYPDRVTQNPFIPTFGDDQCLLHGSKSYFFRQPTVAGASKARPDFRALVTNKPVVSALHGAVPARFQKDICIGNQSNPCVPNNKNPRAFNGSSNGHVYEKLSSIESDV
- Protocol Description: Antagonist activity at human recombinant NR1/NR2B receptor expressed in frog oocytes assessed as inhibition of glutamate/glycine-induced current by two electrode voltage clamp method
Assignment: determine reported IC50 for the given compounds.
Field: numeric (nM). Do not append units.

Task: Need IC50, item CS(=O)(=O)Nc1ccc(OCC(=O)NCCNc2ccc(Cl)c(Cl)c2)cc1
Result: 54

Task: Would you kindly repeat that for CS(=O)(=O)Nc1ccc(OCC(=O)NCCOc2ccc(Cl)c(Cl)c2)cc1 ?
Result: 380

Task: Would you kindly repeat that for CS(=O)(=O)Nc1ccc(CCCNCCNc2ccc(Cl)c(Cl)c2)cc1 ?
Result: 19

Task: Would you kindly repeat that for CS(=O)(=O)Nc1ccc(OCC(=O)NC/C=C/c2ccc(Cl)c(Cl)c2)cc1 ?
Result: 72

Task: Would you kindly repeat that for CS(=O)(=O)Nc1ccc(OCCNCCNc2ccc(Cl)c(Cl)c2)cc1 ?
Result: 39

Task: Would you kindly repeat that for CS(=O)(=O)Nc1ccc(OCCN2CCN(c3ccc(Cl)c(Cl)c3)C2=O)cc1 ?
Result: 730

Task: Would you kindly repeat that for CS(=O)(=O)Nc1ccc(CCC(=O)N2CCN(c3ccc(Cl)c(Cl)c3)CC2)cc1 ?
Result: 3600

Task: Would you kindly repeat that for CS(=O)(=O)Nc1ccc(CCC(=O)NC/C=C/c2ccc(Cl)c(Cl)c2)cc1 ?
Result: 50
